B1: STEAP1 (parent)
chain: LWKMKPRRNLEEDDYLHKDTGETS

variants of: B1; test: protein stability index of a GFP-peptide fusion (GPS, HEK-293T) (PSI 1-6); higher = more stable; details: c terminus: a fixed tail appended;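 further: lentivirally expressed fusions sorted by FACS into six bins by GFP to DsRed ratio, PSI derived from sequencing read proportions per bin multiplied by bin number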
As shown below, each of these variants has a reported protein stability index value.

- mutation.label: "D13A"
  protein stability index: 3.94
- mutation.label: "E22Q"
  protein stability index: 4.11
- mutation.label: "S24R"
  protein stability index: 3.97
